- System: Malme-3M
- protocol.text: NCI tumour cell line growth inhibition, 48 h
The source made the active and inactive calls. Rule as the data show it: active = GI50 up to about 1.1 µM and inactive = higher.

| compound | target.under.test | GI50 |
| --- | --- | --- |
| CCOC(=O)C1(Cc2c[nH]c3ccccc23)C(O)CCCN1C(C)=O (centres undefined) | Malme-3M | > 100 µM (inactive) |
| N#CCCN(CCC#N)c1ccc(/C=C2\SC(=S)NC2=O)cc1 | Malme-3M | > 100 µM (inactive) |
| CC(=O)c1nc2ccccc2n1C(C)C(=O)c1ccccc1 (centres undefined) | Malme-3M | 50.2 µM (inactive) |
| O=C(/C=C/c1c(O)ccc2ccccc12)c1ccccc1Cl | Malme-3M | 18.5 µM (inactive) |
| C=C1C(=O)C23C(CC(OC(C)=O)C1[C@@H]2OC(C)=O)C1(C)C(OC(C)=O)CCC(C)(C)C1C[C@@H]3OC(C)=O (some centres undefined) | Malme-3M | 1.55 µM (inactive) |
| O=C(NCCCC/N=c1/cccccc1NCCCCNC(=O)OCc1ccccc1)OCc1ccccc1 | Malme-3M | 20.4 µM (inactive) |
| CCc1ccc(/C=C/C(=O)C2CN(CC)CCC2(O)/C=C/c2ccc(CC)cc2)cc1 (centres undefined) | Malme-3M | 7.31 µM (inactive) |
| N#C/C(=C\c1cc(OCc2ccccc2)c(OCc2ccccc2)cn1)C(N)=O | Malme-3M | > 100 µM (inactive) |
| CC(C)=CC[C@]12CCN[C@H]1N(S(=O)(=O)c1ccccc1)c1ccccc12 | Malme-3M | 16.3 µM (inactive) |
| C/C(=C\C(C[C@](C)(O)C(O)CCC#C[Si](C)(C)C)S(=O)(=O)c1ccccc1)CC/C=C/CO[Si](C)(C)C(C)(C)C (some centres undefined) | Malme-3M | 20.7 µM (inactive) |
| CN(C)CCNC(=O)c1cc([N+](=O)[O-])cn1C | Malme-3M | > 100 µM (inactive) |
| CCOC(=O)CC(NC(=O)c1nc[nH]c1/N=N/N(C)C)C(=O)OCC (centres undefined) | Malme-3M | > 100 µM (inactive) |
| Clc1ccc(OCc2nnc(CCCCCCCCc3nnc(COc4ccc(Cl)cc4)n3Nc3ccccc3)n2Nc2ccccc2)cc1 | Malme-3M | 12.5 µM (inactive) |
| O=C(O)COc1ccc(C(=O)/C(SS/C(C(=O)c2ccc(OCC(=O)O)c(Cl)c2Cl)=C2\C=C(c3ccc(F)cc3)SS2)=C2/C=C(c3ccc(F)cc3)SS2)c(Cl)c1Cl | Malme-3M | 40.8 µM (inactive) |
| COc1cc2[nH]c(=O)[nH]c2c2c(C)c[nH]c12 | Malme-3M | > 100 µM (inactive) |
| CN(C)CCNC(=O)c1cccc2c(=O)c3ccccc3oc12 | Malme-3M | 25 µM (inactive) |
| O=C1CSC2(CC(/C=C/c3cccc(Br)c3)=NN2c2cccc(S(=O)(=O)O)c2)N1c1nc2ccccc2s1 (centres undefined) | Malme-3M | > 100 µM (inactive) |
| CC1=C(C#N)C2C(=C(N)Oc3ccccc32)C(N)=N1 (centres undefined) | Malme-3M | 16 µM (inactive) |
| COc1ccc(Nc2nc3ccc(C(F)(F)F)cc3nc2-c2ccccc2)cc1OC | Malme-3M | 51.9 µM (inactive) |

----------
- Tested on: LOX IMVI
- protocol.text: NCI tumour cell line growth inhibition, 48 h
Activity calls are given as the source filed them. Cut-off read from the data, not from the text of the source: active = GI50 up to about 1.1 µM and inactive = higher.
Classes used: active, inactive

| compound | class.assignment |
| --- | --- |
| COc1cc(CNc2cnc3ccc(N)cc3n2)cc(OC)c1OC | inactive |
| Cc1nc(Cl)c2sc(=S)n(-c3ccc(F)cc3)c2n1 | inactive |
| N[C@H]1CCN(c2c(F)cc3c(=O)c(C(=O)O)cn4c3c2Oc2cc3c(ccc5ccccc53)cc2-4)C1 | inactive |
| C/C(=N\Nc1nc2ccccc2n1C)c1cc2ccccc2cn1 | active |
| CC(=O)CN/C(C)=N/Nc1ccc([N+](=O)[O-])cc1[N+](=O)[O-] | inactive |
| CC(=O)Nc1ccccc1S(=O)(=O)c1ccccc1 | inactive |
| CCCCCCCCC(=O)NCCCNCCCNC(=O)CCCCCCCC | inactive |
| Cc1ccccc1NC(=O)C(=O)CC(=O)C1CCOC1=O (configuration not stated) | inactive |
| C1=N\c2ccc(cc2)/N=C\c2ccccc2OCc2cccc(n2)COc2ccccc2/1 | inactive |
| C=C1C(=O)C23C(CC(OC(C)=O)C1[C@@H]2OC(C)=O)C1(C)C(OC(C)=O)CCC(C)(C)C1C[C@@H]3OC(C)=O (some centres not stated) | inactive |
| Cc1ccc(C2(N3CCCC3)OC(C)(C)c3cccc4cccc2c34)cc1 (configuration not stated) | inactive |
| C=C1C[C@H](O)[C@H](Br)C(C)(C)C12CCC(C)(Cl)C(Br)C2 (some centres not stated) | inactive |

----------
- System: SNB-19
- protocol.text: NCI tumour cell line growth inhibition, 48 h
Active and inactive are the calls of the source. Cut-off read from the data, not from the text of the source: active = GI50 up to about 1.1 µM and inactive = higher.
Classes used: active, inactive

| compound | class.assignment |
| --- | --- |
| CCCCSc1nsc(N(C(=O)c2ccccc2)C(=O)c2ccccc2)n1 | inactive |
| COc1ccc(Cn2nc(OCc3ccccc3)c3cc([N+](=O)[O-])ccc32)cc1 | inactive |
| CC(C)c1nc2c(Cl)c3ncccc3cc2[nH]c1=O | inactive |
| Nc1c(C(=O)N/N=C/c2ccccc2)sc(=S)n1-c1ccccc1 | inactive |
| CCCCCCCCC(=O)NCCCNCCCNC(=O)CCCCCCCC | inactive |
| CC(C)[Si](OC/C(=C/COC(C)(C)C)[C@H]1CC=C(C(=O)c2ccccc2N2CN(C)C(=O)N(C)C2)C1)(C(C)C)C(C)C | inactive |
| C/C=C\C1OC1(C)c1cc(=O)c2c(C)cc3c(c2o1)C(=O)c1c(O)c(C2CC(C)(N(C)C)C(OC(C)=O)C(C)O2)cc(C2CC(N(C)C)C(O)C(C)O2)c1C3=O (stereo not given) | active |
| Cc1cccc2c(N)c3cccc(C(=O)NCCN4CCOCC4)c3nc12 | active |
| CC(C)c1c(O)c(O)c2c(c1O)C(=O)C(O)=C1C(C)(C)CCC[C@@]12C | inactive |
| COc1cc(C[P+](c2ccccc2)(c2ccccc2)c2ccccc2)cc(OC)c1OC | inactive |

----------
- Tested on: MCF7
- protocol.text: NCI tumour cell line growth inhibition, 48 h
Active and inactive are the calls of the source. No stated cut-off is given here; in the data, active = GI50 up to about 1.1 µM and inactive = higher.
Classes used: t for active, f for inactive

| molecule | class.assignment |
| --- | --- |
| CN(C)CCNC(=O)c1cc([N+](=O)[O-])cn1C | f |
| C#CCn1c(=O)c(C)cn(/C(=C/C(=O)OCC)C(=O)OCC)c1=O | f |
| COC(=O)[C@@H]1C=C[C@@H](C#N)n2c(=O)n(-c3ccccc3)c(=O)n21 | f |
| O=S(=O)(c1cnccc1N1CCN(CCO)CC1)N1CCCC1 | f |
| C[N+]1([O-])[C@H]2CC(OC(=O)[C@H](CO)c3ccccc3)C[C@H]1[C@H]1O[C@H]12 (stereo partly specified) | f |
| CCOc1c(OC)cc(C2c3cc4c(c(OCC)c3CC3COC(=O)C32)OCO4)cc1OC (stereo unspecified) | t |
| CCCCP(CCCC)(CCCC)=C(C(=O)OC)C(C(=O)OC)=C1SC(C(=O)OC)=C(C(=O)OC)S1 | f |
| CN(C)CCCNC(=O)N/N=C\c1cccc2ccccc12 | f |
| CCOC(=O)c1csc(NC(=O)CN2CCN(c3ccccc3)CC2)n1 | f |
| CC#CC#C/C(=C/C=CC(=O)OC)SC | f |
| O=C(NCCCNCCCCNCCCNC(=O)c1cc(-c2ccccc2)nc2ccccc12)c1cc(-c2ccccc2)nc2ccccc12 | f |
| Fc1ccc(NCn2nc(COc3ccccc3Cl)n(/N=C/c3ccc(-c4ccc(Cl)cc4Cl)o3)c2=S)cc1Cl | f |
| CCCC[C@H]1C(=O)O[C@H](C)[C@H](NC(=O)c2cccc(NC=O)c2O)C(=O)O[C@@H](C)[C@@H]1OC(=O)CC(C)C [ANTIMYCIN A3] | t |
| Cc1ccc(NC(=O)CSC(N)=O)cc1C | f |
| CC1C(=O)CC[C@@]2(C)C(=O)CCCC12O (stereo partly specified) | f |
| NC1=NN(c2ccccc2)C2(c3ccncc3C(=O)O)C1C(N)=NN2c1ccccc1 (stereo unspecified) | f |
| O=C1CSC2(CC(/C=C/c3cccc(Br)c3)=NN2c2cccc(S(=O)(=O)O)c2)N1c1nc2ccccc2s1 (stereo unspecified) | f |
| Cc1cc(NC(=O)NC(=O)c2ccccc2NC(=O)C(C)N)ccc1Oc1ncc(Br)cn1 (stereo unspecified) | t |
| O=C(O)CC1NC(/C(=C/c2ccccc2O)NC(=O)c2ccccc2)OC1=O (stereo unspecified) | f |
| CC(C)/C(Cl)=N/OC(=O)Nc1ccc(F)c(Cl)c1 | f |
| Cc1cc2cc3c(O)nc(O)nc3nc2cc1C | f |
